- tested.system: UniProtKB Q92769
- Sequence (Q92769 whole entry): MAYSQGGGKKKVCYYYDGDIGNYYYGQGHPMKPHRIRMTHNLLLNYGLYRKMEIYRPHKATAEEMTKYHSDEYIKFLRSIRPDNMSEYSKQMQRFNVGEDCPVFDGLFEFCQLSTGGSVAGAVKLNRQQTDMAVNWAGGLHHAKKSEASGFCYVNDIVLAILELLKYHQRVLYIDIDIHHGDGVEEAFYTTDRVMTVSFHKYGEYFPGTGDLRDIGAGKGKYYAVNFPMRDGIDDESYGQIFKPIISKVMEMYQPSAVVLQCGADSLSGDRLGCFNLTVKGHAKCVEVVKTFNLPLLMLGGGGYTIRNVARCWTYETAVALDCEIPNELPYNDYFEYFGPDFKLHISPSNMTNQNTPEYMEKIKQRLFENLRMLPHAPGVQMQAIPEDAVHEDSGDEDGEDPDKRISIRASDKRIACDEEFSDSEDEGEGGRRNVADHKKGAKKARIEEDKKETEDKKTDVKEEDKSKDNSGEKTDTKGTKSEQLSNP
- assay.text: Inhibition of full length C-terminal FLAG-tagged HDAC2 (unknown origin) using (Ac-Leu-Gly-Lys(Ac)-AMC as substrate preincubated with enzyme for 2 hrs followed by substrate addition and measured after 30 mins by fluorescence based assay
experimental.endpoint: pIC50
Quick note: pIC50 means taking -log10 of the concentration in moles per liter.

Input line: Can you look up the measured pIC50 of "CCCNNC(=O)c1ccc(CNC(=O)/C=C/c2ccccc2)cc1" for me?
Output line: 7.85

---

- tested.system: Histone deacetylase 1 (Homo sapiens, UniProt Q13547)
- Sequence (Q13547 whole entry): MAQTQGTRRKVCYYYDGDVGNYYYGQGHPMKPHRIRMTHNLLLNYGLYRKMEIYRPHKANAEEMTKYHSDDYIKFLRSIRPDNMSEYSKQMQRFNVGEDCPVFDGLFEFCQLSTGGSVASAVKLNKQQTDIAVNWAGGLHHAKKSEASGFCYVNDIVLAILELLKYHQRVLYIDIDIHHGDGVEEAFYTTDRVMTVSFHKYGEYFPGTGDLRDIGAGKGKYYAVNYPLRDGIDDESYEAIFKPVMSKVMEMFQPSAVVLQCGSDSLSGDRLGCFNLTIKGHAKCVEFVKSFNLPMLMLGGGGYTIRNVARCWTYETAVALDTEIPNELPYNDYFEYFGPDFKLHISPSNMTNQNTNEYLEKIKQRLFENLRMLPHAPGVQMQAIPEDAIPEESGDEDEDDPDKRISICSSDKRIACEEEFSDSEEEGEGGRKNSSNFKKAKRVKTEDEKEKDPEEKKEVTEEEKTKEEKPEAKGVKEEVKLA
- assay.text: Inhibition of full length C-terminal His-tagged HDAC1 (unknown origin) using (Ac-Leu-Gly-Lys(Ac)-AMC as substrate preincubated with enzyme for 30 mins followed by substrate addition and measured after 30 mins by fluorescence based assay
experimental.endpoint: IC50
The reply should read as a number followed by its unit.

Input line: Can you look up the measured IC50 of "CCCNNC(=O)c1ccc(CNC(=O)/C=C/c2ccccc2)cc1" for me?
Output line: 11.3 nM
